- measurement.protocol: gradient 5% acetonitrile 3 min, to 50% in 2 min, to 85% in 15 min, held 3 min, 100 µL/min
- test.conditions: column: Zorbax Extend-C18 2.1 x 50 mm; eluents: water / acetonitrile, 0.1% formic acid
# RP-LC retention time listing for each entry below
Express it in s; write the number only.

COc1cccc(C2=NC3(CCN(C(C)=O)CC3)NC(c3cc(Br)ccc3O)C2)c1 (centres undefined)
694
COc1cccc(S(=O)(=O)N2CCC(Cc3nncn3C)CC2)c1
641
CCOc1cccc2cc(C(=O)Nc3ccccc3S(C)(=O)=O)oc12
931
CCOc1ccc(-c2noc(CN3C(=O)C(C)Oc4ccccc43)n2)cc1OC (centres undefined)
1040
Cc1ccc(C)c(NC(=O)N2CCC(n3cnc4ccc(Cl)cc4c3=O)CC2)c1
929

Qu. Which RP-LC retention time value belongs to CC1CN=C2C=C(N3CCN(S(=O)(=O)Cc4cccc(Cl)c4)CC3)N=CN21 (centres undefined) ?
Ans. 627

Qu. Which measured RP-LC retention time value corresponds to `COC(=O)c1cnc2nc(C)ccc2c1Nc1ccc(Cl)cc1C` ?
Ans. 721

Qu. I am curious: what RP-LC retention time value has been reported for `CCN1C(=O)COc2cc(-c3noc(C(=O)NC4CC4)n3)ccc21` ?
Ans. 773

Qu. Need RP-LC retention time of `COc1cc(Cl)c(CC(=O)c2c[nH]c3ccccc23)cc1OC` , thanks.
Ans. 883

Qu. Could you tell me which RP-LC retention time is on file for `CC(C)N1C(=O)c2cccnc2Sc2cc(NC(=O)CCc3ccccc3)ccc21` ?
Ans. 922

Qu. May I ask what RP-LC retention time has been recorded for `CC(C)c1nc(CNC(=O)c2ccccc2)no1` ?
Ans. 707

Qu. Using the record for CC1CCN(C(=O)c2cn(CC3CCCO3)cc3c(=O)n(-c4ccccc4)nc2-3)CC1 (centres undefined) , report its RP-LC retention time.
Ans. 766

Qu. Query: RP-LC retention time; subject: `N#CCn1nc2n(c1=O)CCN(C(=O)c1cc(C3CC3)[nH]n1)CC2`
Ans. 595

Qu. Could you share which RP-LC retention time value was measured for `CCCn1c(=O)c2cc(C(=O)N3CCN(c4ccc(OC)cc4)CC3)nn2c2ccccc21` ?
Ans. 862

Qu. Please look up its RP-LC retention time: `CC(=O)N1CCCc2cc(S(=O)(=O)N3CCC(C(=O)N4CCN(C)CC4)CC3)ccc21`
Ans. 624

Qu. I have this compound here, `CCNc1cc(N2CCC(CCC(=O)NC3CCN(C(=O)OCC)CC3)CC2)ncn1` , and I need its recorded RP-LC retention time.
Ans. 620

Qu. Could you share which RP-LC retention time value was measured for CC(=O)N1CCc2cc(N3CC(C(=O)NCc4ccc(F)cc4)CC3=O)ccc21 (centres undefined) ?
Ans. 740

Qu. Looking for the measured RP-LC retention time of `C=CCn1nc2ccc(S(=O)(=O)N3CCSCC3)cn2c1=O` , can you help?
Ans. 744

Qu. Need RP-LC retention time of `Cc1ccc(NC(=O)N2CCC(n3c(C(F)(F)F)nc4cccnc43)CC2)cc1` , thanks.
Ans. 856

Qu. Suppose we examine the compound `Cc1ccc2c(Nc3cccc(C)c3C)c(-c3nc(C)no3)cnc2n1` ; what RP-LC retention time value has been reported?
Ans. 797

Qu. Fill blank: measured RP-LC retention time of the compound `CC1CCN(S(=O)(=O)c2ccc3nn(Cc4cccc(C#N)c4)c(=O)n3c2)CC1` is ____.
Ans. 768

Qu. Name the reported RP-LC retention time value associated with the compound `O=C(CCc1ccccc1)NCCc1c[nH]c2ccc(Cl)cc12`
Ans. 895

Qu. Quick check: RP-LC retention time of O=C(NCCc1ccccc1)N1CCCC(Cn2cnc3cccnc32)C1 (centres undefined) ?
Ans. 635

Qu. Return reported RP-LC retention time; argument: `CC(C)CNC(=O)NCCC1CCN(S(=O)(=O)c2ccccc2)CC1`
Ans. 808

---

Let's look at some molecules and their measured RP-LC retention time.
- measurement.protocol: gradient 5% acetonitrile 3 min, to 50% in 2 min, to 85% in 15 min, held 3 min, 100 µL/min
- test.conditions: column: Zorbax Extend-C18 2.1 x 50 mm; eluents: water / acetonitrile, 0.1% formic acid
Supply the numeric figure in s, leaving out any unit text.

Cn1ncc2c3ccccc3n(CCCC(=O)NCCc3ccccc3)c2c1=O
845
CCC(=O)Nc1cc2c(cc1N1CCC(C)CC1)n(C)c(=O)c(=O)n2C
773
O=C1CC(/C=C/c2ccccc2)Cc2nc(N3CCN(Cc4ccc5c(c4)OCO5)CC3)ncc21 (stereo not given)
782
Cc1ccc(-c2nc3ncc(C#N)c(N)n3n2)cc1
707

Qu. Given `COc1ccccc1CCC(=O)NCC(=O)Nc1nc2ccccc2[nH]1` , state its recorded RP-LC retention time.
Ans. 652

Qu. So what does the record say about RP-LC retention time for `Cc1c(Cl)cccc1NC(=O)N1CCN(CCn2c(C(F)(F)F)nc3cccnc32)CC1` ?
Ans. 666

Qu. Consider the molecule shown here: `Cc1ccc(-c2cc(=O)n(CC(=O)Nc3nccs3)cn2)cc1` What is its recorded RP-LC retention time?
Ans. 691

Qu. May I ask what RP-LC retention time has been recorded for `Cc1nn(C(C)C)c(C)c1S(=O)(=O)N1CCN(C(=O)c2cncc(Br)c2)CC1` ?
Ans. 762

Qu. Please report the recorded RP-LC retention time for `CCOC(=O)c1cnc(Nc2nc(-c3ccccc3)c3ccccc3n2)nc1C` .
Ans. 876

---

- measurement.protocol: gradient 5% acetonitrile 3 min, to 50% in 2 min, to 85% in 15 min, held 3 min, 100 µL/min
- test.conditions: column: Zorbax Extend-C18 2.1 x 50 mm; eluents: water / acetonitrile, 0.1% formic acid
experimental.readout: RP-LC retention time (s)
Lab book: enter the figure in s, no units written.

Completed entries (count: 2):
O=[N+]([O-])c1ccc(-c2nc(NCCCO)c3ccccc3n2)cc1
595
CCOC(=O)NCc1nc2ccccc2n1Cc1c(F)cccc1Cl
613

Now consider a different molecule.
Qu. If you can, please state the reported RP-LC retention time value of `O=c1n(Cc2ccc(F)cc2Cl)nc2ccc(S(=O)(=O)N3CCCCC3)cn12` .
Ans. 990

---

- measurement.protocol: gradient 5% acetonitrile 3 min, to 50% in 2 min, to 85% in 15 min, held 3 min, 100 µL/min
- test.conditions: column: Zorbax Extend-C18 2.1 x 50 mm; eluents: water / acetonitrile, 0.1% formic acid
// values below are reported RP-LC retention time
// return numeric value only (unit: s, not printed)

Example results:
COc1ccc(-c2noc(CN3C(=O)COc4ccc(Cl)cc43)n2)c(OC)c1
962
Cc1cc(C)cc(Nc2c(-c3ccc(C(=O)O)cc3)nc3cnccn23)c1
779
COc1cccc(NC(=O)c2cccn2Cc2noc(C)n2)c1
792

Qu. Fill blank: measured RP-LC retention time of the compound COC(=O)c1scc(C)c1NC(=O)C(C)NC(C)C (centres undefined) is ____.
Ans. 618

Qu. Which value of RP-LC retention time has been reported for `CCSc1ccccc1C(=O)NCC1CCN(S(=O)(=O)C2CC2)CC1` in the records?
Ans. 725

Qu. Can you share its RP-LC retention time? I mean this compound: `CC(C)CCNC(=O)C1CCN(S(=O)(=O)c2ccc3c(c2)NC(=O)CO3)CC1`
Ans. 744

Qu. Given the entry `Cc1nc(-n2nc(C)c(Cl)c2C)sc1C(=O)N1CCOCC1` , report its measured RP-LC retention time.
Ans. 953

Qu. Fill in: RP-LC retention time of COc1ccc(-n2c(=O)c(C(=O)NC(C)c3ccccc3)c(O)c3cccnc32)cc1 (centres undefined) is ___
Ans. 1180

Qu. Given Cc1cc(F)ccc1NC(=O)C1CCCN1S(C)(=O)=O (centres undefined) , state its recorded RP-LC retention time.
Ans. 701

---

- measurement.protocol: gradient 5% acetonitrile 3 min, to 50% in 2 min, to 85% in 15 min, held 3 min, 100 µL/min
- test.conditions: column: Zorbax Extend-C18 2.1 x 50 mm; eluents: water / acetonitrile, 0.1% formic acid
experimental.readout: RP-LC retention time
Note: a bare number is incomplete; add the unit.

Example cases with answers are listed next.
Cc1cccc(N(C(=O)c2cnc3n(c2=O)CCS3)C2CCCCC2)c1
782 s
CCN1C(=O)c2c(C(=O)NCc3cccc(Cl)c3)ncn2CC1(C)C(=O)NC1CCCC1 (centres undefined)
804 s
Cc1noc([C@@H]2CC(F)(F)CN2C(=O)c2ccco2)n1
706 s

Please find the next compound below.
Qu. Need RP-LC retention time of `CCc1nc(-c2csc(S(=O)(=O)N3CCC(C(=O)NCc4ccccc4)CC3)c2)no1` , thanks.
Ans. 702 s
